Biological target: Homeobox protein Hox-A13 (Mus musculus) (UniProt Q62424)
Sequence (Q62424 whole entry, looked up): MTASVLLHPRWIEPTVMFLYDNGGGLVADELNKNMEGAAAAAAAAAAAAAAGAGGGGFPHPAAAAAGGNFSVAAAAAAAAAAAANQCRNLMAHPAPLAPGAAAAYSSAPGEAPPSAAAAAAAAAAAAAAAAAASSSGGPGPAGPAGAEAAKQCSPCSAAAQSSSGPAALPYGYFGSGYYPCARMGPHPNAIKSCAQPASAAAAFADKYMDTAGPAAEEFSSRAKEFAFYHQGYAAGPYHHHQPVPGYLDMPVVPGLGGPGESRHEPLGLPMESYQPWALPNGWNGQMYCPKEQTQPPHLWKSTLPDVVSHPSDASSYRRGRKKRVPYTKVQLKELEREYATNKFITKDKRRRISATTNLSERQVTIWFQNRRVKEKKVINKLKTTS
Experiment: inhibitors of HoxA13-DNA binding, primary screen, biochemical, fluorescence polarization, labeled oligonucleotide (AID 1185)
Conditions: 15 min, higher = more signal, called active from +8 up or from −8 down

compound	test_system	z-score
C=CC[C@@]1(C(=O)O)N=C(c2ccc(OCCCO)cc2)O[C@@H]1c1ccccc1	Homeobox protein Hox-A13 (Mus musculus) (UniProt Q62424)	-4.13
CC(C)CN1C(=O)[C@@]2(c3ccc([N+](=O)[O-])cc3)CC(=O)N(CC34CC5CC(CC(C5)C3)C4)[C@@H]2c2ccc(CO)cc21	Homeobox protein Hox-A13 (Mus musculus) (UniProt Q62424)	0.944
COCCOC(=O)N1C(=O)[C@@]2(c3cc(C#CC4=CCCCC4)ccc31)[C@H](c1ccccc1OCCO)N1[C@H](c3ccccc3)[C@H](c3ccccc3)OC(=O)[C@H]1[C@@H]2C(=O)N1CCc2cc(OC)c(OC)cc2C1	Homeobox protein Hox-A13 (Mus musculus) (UniProt Q62424)	2.38
CCCCN1CC=CC23O[C@@H]4C=CCOC(=O)[C@@H]4[C@H]2C(=O)N(CCCO)[C@@H]3C1=O (stereo not given in full)	Homeobox protein Hox-A13 (Mus musculus) (UniProt Q62424)	-4.48
CC(=O)n1cc(C(O)C2C=CC3C(=O)N(c4ccccc4)C(=O)C3N2Nc2ccccc2)c2ccccc21 (stereo not given)	Homeobox protein Hox-A13 (Mus musculus) (UniProt Q62424)	-3.42
O=C1NC(=O)C2C1C=CC(C(O)c1c(F)cccc1Cl)N2Nc1ccccn1 (stereo not given)	Homeobox protein Hox-A13 (Mus musculus) (UniProt Q62424)	-2.19
Cc1ccc(S[C@]2(C(=O)NC(C)C)CC(=O)N(Cc3ccccc3C(F)(F)F)[C@@H]2c2ccc(CO)cc2I)cc1	Homeobox protein Hox-A13 (Mus musculus) (UniProt Q62424)	-1.9
CC(CO)N1C(=O)[C@@H]2C3C(=O)OCCC/C=C\[C@H]3OC23C=CCN(Cn2nnc4ccccc42)C(=O)[C@@H]13 (stereo not given in full)	Homeobox protein Hox-A13 (Mus musculus) (UniProt Q62424)	-2.97
CC(C)N1CC=CC23O[C@@H]4C=CCOC(=O)[C@@H]4[C@H]2C(=O)N(C(C)CO)[C@@H]3C1=O (stereo not given in full)	Homeobox protein Hox-A13 (Mus musculus) (UniProt Q62424)	-3.67
CCCCC(=C=CC[C@@H](O)c1ccc(OCCO)cc1)C[C@@H](O)COCc1ccccc1	Homeobox protein Hox-A13 (Mus musculus) (UniProt Q62424)	-4.47
C=C(CCCC)C(=O)CC[C@@H](OC(=O)c1ccccc1-c1ccccc1C(=O)O)c1cccc(OCCO)c1	Homeobox protein Hox-A13 (Mus musculus) (UniProt Q62424)	-5.72
O=C1O[C@@H](c2ccccc2)[C@@H](c2ccccc2)N2[C@@H](c3ccccc3OCCO)[C@]3(C(=O)Nc4ccc(C#CCCO)cc43)[C@@H](C(=O)N3CCN(c4ncccn4)CC3)[C@H]12	Homeobox protein Hox-A13 (Mus musculus) (UniProt Q62424)	-1.33
COCCOC(=O)N1C(=O)[C@@]2(c3ccccc31)[C@H](C(=O)N1CCN(c3ncccn3)CC1)[C@H]1C(=O)O[C@H](c3ccccc3)[C@H](c3ccccc3)N1[C@@H]2c1ccc(OCCO)cc1	Homeobox protein Hox-A13 (Mus musculus) (UniProt Q62424)	-0.387
O=C1NC(=O)C2C1C=CC(C(O)c1ccc3c(c1)OCO3)N2Nc1ccccn1 (stereo not given)	Homeobox protein Hox-A13 (Mus musculus) (UniProt Q62424)	-1.69
Cc1ccc(S[C@]2(C(=O)NCC(C)C)CC(=O)N(Cc3ccccc3Cl)[C@@H]2c2ccc(CO)cc2I)cc1	Homeobox protein Hox-A13 (Mus musculus) (UniProt Q62424)	-2.97
